target-entity: CK2α (Homo sapiens)
Sequence (P68400 whole entry): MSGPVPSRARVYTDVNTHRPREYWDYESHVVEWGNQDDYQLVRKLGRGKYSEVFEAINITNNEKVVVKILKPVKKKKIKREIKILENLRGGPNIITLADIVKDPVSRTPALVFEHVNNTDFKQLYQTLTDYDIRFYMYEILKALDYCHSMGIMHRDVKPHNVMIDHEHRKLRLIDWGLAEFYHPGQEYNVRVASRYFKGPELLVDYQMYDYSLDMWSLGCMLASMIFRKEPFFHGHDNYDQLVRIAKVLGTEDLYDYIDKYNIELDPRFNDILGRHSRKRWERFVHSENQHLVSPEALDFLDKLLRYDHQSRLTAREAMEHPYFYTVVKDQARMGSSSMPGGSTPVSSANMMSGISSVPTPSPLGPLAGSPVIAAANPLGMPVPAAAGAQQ
pIC50: −log10 of the molar value.
outcome-measure: pIC50

Entry O=C(O)/C=C/c1cc(Br)c(Br)c(Br)c1Br [TBCA] : reported pIC50 = ?
~5.00
